The reported numbers originate from the supplement of paper PMC10567573.

B1: GMCL1 (parent)
chain: FCYCAGSHKRKRSSGSFCYCHPDS

- Variants of: B1
- assayProtocol: protein stability index of a GFP-peptide fusion (GPS, HEK-293T) (PSI 1-6); higher = more stable;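 further: lentivirally expressed fusions sorted by FACS into six bins by GFP to DsRed ratio, PSI derived from sequencing read proportions per bin multiplied by bin number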
- condition: c terminus: a fixed tail appended
readoutType: protein stability index
Form: value (number only, do not type unit).

mutationLabel: Y19T
protein stability index: 3.6
--
mutationLabel: F1R
protein stability index: 3.85

# protein stability index of `K9P` = 1.52

# protein stability index of `R12L` = 1.63

# protein stability index of `F17T` = 2.27

# protein stability index of `S7M` = 1.98
